# assayed-target: human GlyT1c transporter (Homo sapiens (Human), UniProt P48067)
# Sequence (P48067 whole entry): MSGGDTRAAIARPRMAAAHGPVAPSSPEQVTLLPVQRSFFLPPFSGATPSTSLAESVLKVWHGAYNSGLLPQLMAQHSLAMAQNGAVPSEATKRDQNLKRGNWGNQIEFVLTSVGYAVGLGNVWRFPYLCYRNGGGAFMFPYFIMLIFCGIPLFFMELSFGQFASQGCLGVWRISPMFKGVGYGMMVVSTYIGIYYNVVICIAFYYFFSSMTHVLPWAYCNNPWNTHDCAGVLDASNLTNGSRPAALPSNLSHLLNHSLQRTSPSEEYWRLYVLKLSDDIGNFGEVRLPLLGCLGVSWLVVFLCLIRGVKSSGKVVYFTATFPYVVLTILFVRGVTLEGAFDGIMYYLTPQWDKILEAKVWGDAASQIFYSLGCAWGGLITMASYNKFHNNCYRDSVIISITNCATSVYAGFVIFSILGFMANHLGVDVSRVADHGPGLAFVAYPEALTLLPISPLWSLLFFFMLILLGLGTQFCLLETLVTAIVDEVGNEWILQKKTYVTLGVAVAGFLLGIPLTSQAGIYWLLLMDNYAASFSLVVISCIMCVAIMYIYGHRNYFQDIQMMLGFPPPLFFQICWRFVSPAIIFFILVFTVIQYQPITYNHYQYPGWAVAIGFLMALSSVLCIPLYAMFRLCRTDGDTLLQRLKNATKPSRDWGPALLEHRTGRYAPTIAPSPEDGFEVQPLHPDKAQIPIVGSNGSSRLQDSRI
# assay-protocol: Radioligand binding assay using recombinant CHO cell membranes expressing human GlyT1
# particulars: read-out: radioligand binding Kiapp
pKi: −log10 of the molar value.
quantity-measured: pKi

Task: Data request, read-out pKi, for Cn1cnc(S(=O)(=O)NCCOc2ccc3c(c2)C(Cc2ccccc2)C(N2CC4CC4C2)CC3)c1 (stereo not drawn)
Result: > 8.00

Task: Again, but for N#CC1(NC2CCc3ccc(CNS(=O)(=O)CC4CC4)cc3C2Cc2ccccc2)COC1 (stereo not drawn)
Result: > 7.00

Task: Again, but for CCCS(=O)(=O)NCc1ccc2c(c1)C(Cc1ccccc1)C(NC1(C#N)COC1)CC2 (stereo not drawn)
Result: > 6.00

Task: Again, but for Cn1cnc(S(=O)(=O)NCCOc2ccc3c(c2)C(Cc2ccccc2F)C(N2CC4CC4C2)CC3)c1 (stereo not drawn)
Result: > 6.00

Task: Again, but for N#CC1(NC2CCc3ccc(CNS(=O)(=O)C4CCC4)cc3C2Cc2ccccc2)COC1 (stereo not drawn)
Result: > 6.00

Task: Again, but for CCS(=O)(=O)NCc1ccc2c(c1)C(Cc1ccccc1)C(NC1(C#N)COC1)CC2 (stereo not drawn)
Result: > 6.00

Task: Again, but for Cn1cnc(S(=O)(=O)NCCOc2cc3c(cc2C#N)CCC(N2CC4CC4C2)C3Cc2ccccc2)c1 (stereo not drawn)
Result: > 6.00

Task: Again, but for Cn1cc(S(=O)(=O)NCCOc2ccc3c(c2)C(Cc2ccccc2)C(N2CC4CC4C2)CC3)cn1 (stereo not drawn)
Result: > 8.00

Next molecule, pKi to be filled in.
Task: Data request, read-out pKi, for Cn1cnc(S(=O)(=O)NCc2ccc3c(c2)C(Cc2ccccc2)C(N2CC4CC4C2)CC3)c1.O=C(O)/C=C/C(=O)O (stereo not drawn)
Result: > 8.00

The origin of these recorded values is patent US8846741B2.
